molecular target: His-p53 Y220C (94-294) protein (Homo sapiens, UniProt P04637, Y220C); construct: His-p53 Y220C (94-294) protein; assay: In vitro DNA binding assay (HTRF); conditions: % activation normalized to 2 μM Ref-1a high control
Metric Name: EC50 (nM)

- COc1cc(S(C)(=O)=O)ccc1NCC#Cc1sc2c(NC3CCN(C)CC3)cccc2c1CC(F)(F)F: 81
- [2H]C([2H])([2H])N1CC[C@@H](Nc2cccc3c(CC(F)(F)F)c(C#CCNc4ccc(P(C)(C)=O)cc4OC)sc23)[C@@H](F)C1: 16

1. CCc1c(C#CCNc2ccc(S(N)(=O)=O)cc2)sc2c(NC3CCN(C)CC3)cccc12
2. CCP(=O)(CC)c1ccc(NCC#Cc2sc3c(NC4CCN(C5CCOCC5)CC4)cccc3c2CC(F)(F)F)c(OC)c1
Could you determine which record has the numerically smaller EC50? Candidates: 1 and 2 Bench note: the answer is the label of the chosen record.
2

###

target: His-p53 Y220C (94-294) protein (Homo sapiens, UniProt P04637, Y220C); construct: His-p53 Y220C (94-294) protein; experiment: In vitro DNA binding assay (HTRF); type: biochemical; settings: % activation normalized to 2 μM Ref-1a high control
Metric Name: EC50 (nM)

* [2H]C([2H])([2H])Oc1cc(P(C)(C)=O)ccc1NCC#Cc1sc2c(N[C@@H]3CCN(C)C[C@@H]3F)cccc2c1CC(F)(F)F | 15

a. COc1cc(P(C)(C)=O)ccc1NCC#Cc1sc2c(NC3CCN(C)CC3)ccnc2c1CC(F)(F)F
b. COc1c(NCC#Cc2sc3c(N[C@@H]4CCN(C)C[C@@H]4F)cccc3c2CC(F)(F)F)ccc(P(C)(C)=O)c1F
c. COc1cc(C(=O)NO)ccc1NCC#Cc1sc2c(NC3CCN(C)CC3F)cccc2c1CC(F)(F)F (stereo not drawn)
d. COc1cc(P(C)(C)=O)ccc1NCC#Cc1sc2c(NC3CCN(C)CC34CC4)cccc2c1CC(F)(F)F (stereo not drawn)
e. COc1cc(P(C)(C)=O)ccc1NCC#Cc1sc2c(NC3C4CCC3CN(C)C4)cccc2c1CC(F)(F)F (stereo not drawn)
Rank entries according to their EC50, from the largest number down. Would you mind listing the labels in the order requested?
a, e, c, d, b

###

target: His-p53 Y220C (94-294) protein (Homo sapiens, UniProt P04637, Y220C); construct: His-p53 Y220C (94-294) protein; experiment: In vitro DNA binding assay (HTRF); details: % activation normalized to 2 μM Ref-1a high control
Metric Name: EC50 (nM)

Consider the worked cases shown below.
* CCN1CC[C@@H](Nc2cccc3c(CC(F)(F)F)c(C#CCNc4ccc(P(C)(C)=O)cc4OC)sc23)[C@@H](F)C1 [Example 135] | 26
* COc1nc(C(N)=O)ccc1NCC#Cc1sc2c(NC3CCN(C)CC3F)cccc2c1CC(F)(F)F (centres unmarked) | 220
* COc1cc(S(=O)(=O)NCC(O)CO)ccc1NCC#Cc1sc2c(NC3CCN(C)CC3)cccc2c1CC(F)(F)F (centres unmarked) | 56
* CN1CC[C@@H](Nc2cccc3c(CC(F)(F)F)c(C#CCNc4ccc(P(C)(C)=O)c5c4OCCO5)sc23)[C@@H](F)C1 | 113
* CN1CCC(Nc2cccc3c(CC(F)(F)F)c(C#CCNc4ccc(S(N)(=O)=O)cc4)sc23)CC1 | 99
* CNC(=O)c1ccc(NCC#Cc2cc3c(N[C@@H]4CCN(C)C[C@@H]4F)cccc3n2CC(F)(F)F)c(OC)c1 [Example 57] | 29
* COCCOCCNC(=O)c1ccc(NCC#Cc2sc3c(N[C@@H]4CCN(C)C[C@@H]4F)cccc3c2CC(F)(F)F)c(OC)c1 (racemic) | 103
* COc1nc(P(C)(C)=O)ccc1NCC#Cc1sc2c(N[C@@H]3CCN(C)C[C@@H]3F)cccc2c1CC(F)(F)F | 31
* CN1CCC(Nc2cccc3c(CC(F)(F)F)c(C#CCNc4cccc5c(C6CCNCC6)c[nH]c45)sc23)CC1 | 452
* COCC(O)CNC(=O)c1ccc(NCC#Cc2sc3c(NC4CCN(C)CC4F)cccc3c2CC(F)(F)F)c(OC)c1 (centres unmarked) | 73

1. C[C@@H](C#Cc1sc2c(NC3CCN(C)CC3)cccc2c1CC(F)(F)F)Nc1ccc(S(N)(=O)=O)cc1
2. COCC(O)CN1CC[C@@H](Nc2cccc3c(CC(F)(F)F)c(C#CCNc4ccc(S(C)(=O)=O)cc4OC)sc23)[C@@H](F)C1 (mixture of isomers)
Could you determine which record has the numerically smaller EC50? Candidates: 1 and 2 Bench note: the answer is the label of the chosen record.
2
(2: 130 nM, 1: 2790 nM)

I. COc1cc(S(C)(=O)=O)ccc1NCC#Cc1sc2c(NC3CCN(CC(F)(F)F)CC3)cccc2c1CC(F)(F)F
II. COc1cc(S(C)(=O)=O)ccc1NCC#Cc1sc2c(NC3C4CNCC3CNC4)cccc2c1CC(F)(F)F (centres unmarked)
Could you determine which record has the numerically smaller EC50? Candidates: I and II Bench note: the answer is the label of the chosen record.
II
(II: 134 nM, I: 3880 nM)

A. COc1cc(P(C)(C)=O)ccc1NCC#Cc1sc2c(NC3CCN(CC4CC4)C[C@@H]3F)cccc2c1CC(F)(F)F (mixture of isomers)
B. COc1nc(P(C)(C)=O)ccc1NCC#Cc1sc2c(N[C@@H]3CCN(C4CCOCC4)C[C@@H]3F)cccc2c1CC(F)(F)F
Could you determine which record has the numerically smaller EC50? Candidates: A and B Bench note: the answer is the label of the chosen record.
A
(A: 64 nM, B: 134 nM)

###

biological target: His-p53 Y220C (94-294) protein (Homo sapiens, UniProt P04637, Y220C); construct: His-p53 Y220C (94-294) protein; experiment: In vitro DNA binding assay (HTRF); details: % activation normalized to 2 μM Ref-1a high control
Metric Name: EC50 (nM)

Consider the worked cases shown below.
- COc1cc(C(N)=O)ncc1NCC#Cc1sc2c(NC3CCN(C)CC3F)cccc2c1CC(F)(F)F (centres unmarked): 102
- COc1cc(P(C)(C)=O)ccc1NCC#Cc1sc2c(NC3CC4(C3)CN(C)C4)cccc2c1CC(F)(F)F: 45
- COc1cc(P(C)(C)=O)ccc1NCC#Cc1sc2c(N[C@@H]3CCN(C4CC(C)(C)OC(C)(C)C4)C[C@@H]3F)cccc2c1CC(F)(F)F: 96
- COc1cc(P(C)(C)=O)ccc1NCC#Cc1sc2c(N[C@H]3CCN(C4CCOCC4)C[C@H]3F)cccc2c1CC(F)(F)F: 147
- COc1cc(S(C)(=O)=O)ccc1NCC#Cc1sc2c(NC3CC4CC3CN4C)cccc2c1CC(F)(F)F (centres unmarked): 235

1. COc1cc(P(C)(C)=O)cnc1NCC#Cc1sc2c(N[C@@H]3CCN(C)C[C@@H]3F)cccc2c1CC(F)(F)F
2. COc1cc(S(C)(=O)=O)ccc1NCC#Cc1sc2c(NC3CCN(C)CC3F)cccc2c1CC(F)(F)F (centres unmarked)
Could you determine which record has the numerically smaller EC50? Candidates: 1 and 2 Bench note: the answer is the label of the chosen record.
2
(2: 44 nM, 1: 126 nM)

a. COc1cc(P(C)(C)=O)ccc1NCC#Cc1sc2c(N[C@@H]3CCN(CC(C)C)C[C@@H]3F)cccc2c1CC(F)(F)F (racemic)
b. CCP(=O)(CC)c1ccc(NCC#Cc2sc3c(N[C@@H]4CCN(C)C[C@@H]4F)cccc3c2CC(F)(F)F)c(OCF)c1 (racemic)
c. COc1cc(P(C)(C)=O)ccc1NCC#Cc1sc2c(NC3C(C)CN(C)CC3C)cccc2c1CC(F)(F)F (centres unmarked) [Example 131]
Reorder the items by EC50, least to greatest. Would you mind listing the labels in the order requested?
c, b, a
(c: 33 nM, b: 60 nM, a: 105 nM)

A. CN1CC[C@@H](Nc2cccc3c(CC(F)(F)F)c(C#CCNC(=O)c4cnn(C(C)(C)C)c4)sc23)[C@@H](F)C1 (racemic)
B. CN1CC[C@@H](Nc2cccc3c(CC(F)(F)F)c(C#CCNc4ccc(P(C)(C)=O)cc4C(=O)NC4CCOCC4)sc23)[C@@H](F)C1
Recorded EC50 values differ for A and B ; which one is higher? Bench note: the answer is the label of the chosen record.
A
(A: 69 nM, B: 48 nM)

###

target: His-p53 Y220C (94-294) protein (Homo sapiens, UniProt P04637, Y220C); construct: His-p53 Y220C (94-294) protein; test: In vitro DNA binding assay (HTRF); conditions: % activation normalized to 2 μM Ref-1a high control
pEC50: −log10 of the molar value.
Metric Name: pEC50

Consider the worked cases shown below.
• CN1CC[C@@H](Nc2cccc3c(CC(F)(F)F)c(C#CCNc4ccc(P(C)(C)=O)cc4-c4cnco4)sc23)[C@@H](F)C1 [Example 214] = 7.42
• COc1cc(C(=O)N2CCOCC2)ccc1NCC#Cc1sc2c(NC3CCN(C)CC3F)cccc2c1CC(F)(F)F (centres unmarked) [Example 50] = 7.07

P. CN1CC[C@@H](Nc2cccc3c(CC(F)(F)F)c(C#CCNc4ccc(P(C)(C)=O)cc4C(=O)NC4CC4)sc23)[C@@H](F)C1 [Example 215]
Q. COc1cc(P(C)(C)=O)ccc1NCC#Cc1sc2c(N[C@@H]3CCN(C4CCC4)C[C@@H]3F)cccc2c1CC(F)(F)F (racemic) [Example 103]
R. COc1cc(P(C)(C)=O)ccc1NCC#Cc1sc2c(NC3CCN(C)CC3F)cccc2c1-c1cncs1 (centres unmarked) [Example 116]
S. COc1cc(P(C)(C)=O)ccc1NCC#Cc1sc2c(NC[C@@]34CCCN3C[C@H](F)C4)cccc2c1CC(F)(F)F [Example 70]
Rank entries according to their pEC50, from the largest number down. Would you mind listing the labels in the order requested?
P, Q, S, R
(P: 7.38, Q: 7.04, S: 6.64, R: 5.29)

I. CN1CCC(Nc2cccc3c(CC(F)(F)F)c(C#CCNc4ccc(P(C)(C)=O)cc4OCF)sc23)C(F)C1 (centres unmarked) [Example 10]
II. COc1cc(P(C)(C)=O)ccc1OCC#Cc1sc2c(N[C@@H]3CCN(C)C[C@@H]3F)cccc2c1CC(F)(F)F (racemic) [Example 123]
Recorded pEC50 values differ for I and II ; which one is higher? Bench note: the answer is the label of the chosen record.
I

P. COc1cc(P(C)(C)=O)ncc1NCC#Cc1sc2c(N[C@@H]3CCN(C)C[C@@H]3F)cccc2c1CC(F)(F)F [Example 92]
Q. CNC(=O)c1ccc(NCC#Cc2sc3c(N[C@@H]4CCN(C)C[C@@H]4F)cccc3c2CC(F)(F)F)c(C#N)c1 (racemic) [Example 95]
R. COc1cc(P(C)(C)=O)ccc1NCC#Cc1sc2c(NC3CCN(C)CC3F)cccc2c1C(O)C(F)(F)F (racemic) [Example 188]
Rank entries according to their pEC50, from the largest number down. Would you mind listing the labels in the order requested?
R, P, Q
(R: 7.74, P: 7.33, Q: 6.88)
